molecular target: USP25 (USP25-His6, Boston Biochem E-546) (Homo sapiens, UniProt Q9UHP3); construct: His6; purchased Boston Biochem E-546; test: Ubiquitin-Rhodamine 110 Assay for USP25 Activity, Example A-2; type: biochemical; conditions: Ubiquitin-Rhodamine 110 assay, format Example A-2; read-out: USP25 A-2 IC50 range
Sequence (Q9UHP3 whole entry): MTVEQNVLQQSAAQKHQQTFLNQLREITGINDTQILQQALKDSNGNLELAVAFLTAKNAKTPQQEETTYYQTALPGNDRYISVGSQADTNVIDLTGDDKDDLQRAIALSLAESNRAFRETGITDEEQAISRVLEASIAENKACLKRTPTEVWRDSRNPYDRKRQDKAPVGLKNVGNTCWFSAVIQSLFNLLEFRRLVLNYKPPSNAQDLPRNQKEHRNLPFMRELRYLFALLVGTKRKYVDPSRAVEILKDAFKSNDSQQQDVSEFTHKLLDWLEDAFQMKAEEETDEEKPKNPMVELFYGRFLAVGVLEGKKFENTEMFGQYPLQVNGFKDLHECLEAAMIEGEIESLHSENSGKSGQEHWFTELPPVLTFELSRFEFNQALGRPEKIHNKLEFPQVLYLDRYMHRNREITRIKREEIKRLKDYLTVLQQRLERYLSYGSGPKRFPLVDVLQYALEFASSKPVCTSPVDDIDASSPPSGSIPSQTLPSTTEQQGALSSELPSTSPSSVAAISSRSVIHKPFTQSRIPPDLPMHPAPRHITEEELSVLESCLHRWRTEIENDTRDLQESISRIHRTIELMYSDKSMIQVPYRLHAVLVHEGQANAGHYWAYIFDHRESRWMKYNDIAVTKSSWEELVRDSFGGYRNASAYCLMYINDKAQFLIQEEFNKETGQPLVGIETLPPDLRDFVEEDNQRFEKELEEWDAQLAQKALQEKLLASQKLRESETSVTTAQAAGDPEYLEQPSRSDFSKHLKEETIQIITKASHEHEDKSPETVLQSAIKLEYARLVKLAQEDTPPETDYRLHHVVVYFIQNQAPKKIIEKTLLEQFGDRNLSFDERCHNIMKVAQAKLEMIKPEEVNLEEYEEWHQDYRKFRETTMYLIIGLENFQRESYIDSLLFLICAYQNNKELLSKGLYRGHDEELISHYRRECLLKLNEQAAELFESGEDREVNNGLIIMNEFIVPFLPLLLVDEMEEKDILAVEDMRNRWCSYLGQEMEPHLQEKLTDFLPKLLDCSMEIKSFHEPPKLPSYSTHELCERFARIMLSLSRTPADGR
pIC50: −log10 of the molar value.
parameter.measured: pIC50

Here are 5 compounds together with their reported answers.
compound: Cc1ccc2c(N)c(C(=O)N[C@@H]3CCc4c(ccc(N5CCNCC5)c4F)C3)sc2n1 (single isomer, unassigned) [Example 21-5]
parameter.measured: pIC50
value.observed: 6.70 to 7.30
//
compound: Cc1ccc2c(N)c(C(=O)N[C@@H]3CCc4c(ccc(N5CC6CCC(C5)N6)c4C#N)C3)sc2n1 (single isomer, unassigned) [Example 14-1]
parameter.measured: pIC50
value.observed: 6.70 to 7.30
//
compound: Cc1ccc2c(N)c(C(=O)N[C@H]3CCc4c(F)c(N5CC6CNCC(C5)O6)cc(F)c4C3)sc2n1 (single isomer, unassigned) [Example 22-3]
parameter.measured: pIC50
value.observed: < 5.70
//
compound: Cc1ccc2c(N)c(C(=O)N[C@@H]3COc4c(ccc(N5CCNCC5)c4Cl)C3)sc2n1 [Example 13-8]
parameter.measured: pIC50
value.observed: < 5.70
//
compound: Cc1ccc2c(N)c(C(=O)N[C@H]3COc4nc(N5CCNCC5)c(F)cc4C3)sc2n1 [Example 20]
parameter.measured: pIC50
value.observed: 5.70 to 6.70

In: Requested field: pIC50. Item: Cc1ccc2c(N)c(C(=O)N[C@H]3CCc4cc(N5CC6CCC(C5)N6)c(C#N)cc4C3)sc2n1 (single isomer, unassigned) [Example 14-4]
Out: 6.70 to 7.30

In: Quick one: pIC50 for Cc1ccc2c(N)c(C(=O)N[C@@H]3CCc4cc(N5C6CNCC5C6)ccc4C3)sc2n1 (single isomer, unassigned) [Example 11-36] ?
Out: 5.70 to 6.70

In: Reported pIC50 for Cc1ccc2c(N)c(C(=O)N[C@@H]3CCc4cc(N5CCNCC5)cnc4C3)sc2n1 (single isomer, unassigned) [Example 15-1] : what is it?
Out: < 5.70

In: Looking for the measured pIC50 of Cc1ccc2c(N)c(C(=O)N[C@@H]3CCc4c(F)c(N5CC6CCC(C5)N6)cc(F)c4C3)sc2n1 (single isomer, unassigned) [Example 22-6] , can you help?
Out: < 5.70

In: // returns reported pIC50 for input Cc1nc2sc(C(=O)N[C@@H]3CCc4c(C#N)c(N5CC6CCC(C5)N6)cc(F)c4C3)c(N)c2s1 (single isomer, unassigned) [Example 14-22]
Out: < 5.70

In: Given the entry Cc1ccc2c(N)c(C(=O)N[C@@H]3COc4cc(N5CCNCC5)c(Cl)cc4C3)sc2n1 (single isomer, unassigned) [Example 13-6] , report its measured pIC50.
Out: 6.70 to 7.30

In: Bench note: what pIC50 did Cc1ccc2c(N)c(C(=O)N[C@H]3COc4c(cnc(N5CC6CCC(C5)N6)c4F)C3)sc2n1 [Example 18] show?
Out: 6.70 to 7.30

In: // pIC50 lookup, key: CO[C@H]1CN(c2ccc3c(n2)CC[C@H](NC(=O)c2sc4nc(C)cc(C)c4c2N)C3)C[C@@H]1N [Example 23-3]
Out: < 5.70

In: Which pIC50 reading was recorded for the compound Cc1ccc2c(N)c(C(=O)N[C@H]3COc4cc(N5CC6CCC(C5)N6)c(F)c(F)c4C3)sc2n1 [Example 13-3] ?
Out: < 5.70

In: Which measured pIC50 value corresponds to CO[C@H]1CN(c2ccc3c(n2)CC[C@H](NC(=O)c2sc4nc(C)ccc4c2N)C3)C[C@@H]1N [Example 23-4] ?
Out: < 5.70

In: Could you share which pIC50 value was measured for Cc1ccc2c(N)c(C(=O)N[C@H]3COc4c(ccc(N5CCNCC5)c4Cl)C3)sc2n1 [Example 13_7] ?
Out: 6.70 to 7.30
